B1: TPR t1 (parent)
chain: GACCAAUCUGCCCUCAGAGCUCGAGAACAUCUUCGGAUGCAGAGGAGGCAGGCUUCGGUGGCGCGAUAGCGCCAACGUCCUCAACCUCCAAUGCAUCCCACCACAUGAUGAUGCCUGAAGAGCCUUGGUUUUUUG

# Variants of: B1
# test-summary: polymerase ribozyme fitness, log enrichment relative to wild type (log ratio); higher = more active; in vitro selection for triplet polymerase activity
readout-type: polymerase ribozyme fitness (log ratio)
Output spec: single numeric token, no unit.

What value of polymerase ribozyme fitness (log ratio) has been reported for the following variant? C11U A84G C89A
-4

What value of polymerase ribozyme fitness (log ratio) has been reported for the following variant? C12A C94U
-0.961

What value of polymerase ribozyme fitness (log ratio) has been reported for the following variant? A119U C123U
2.17

What value of polymerase ribozyme fitness (log ratio) has been reported for the following variant? A26C G45C U87C
-6.66

What value of polymerase ribozyme fitness (log ratio) has been reported for the following variant? C11U C49A G107U G120A
-4.45

What value of polymerase ribozyme fitness (log ratio) has been reported for the following variant? A2G A18U A29G C104G C124U U130G
-4.82

What value of polymerase ribozyme fitness (log ratio) has been reported for the following variant? G25C A119G
-6.74

What value of polymerase ribozyme fitness (log ratio) has been reported for the following variant? A26U G117A
-5.38

What value of polymerase ribozyme fitness (log ratio) has been reported for the following variant? C72U A118U U130C
0.16

What value of polymerase ribozyme fitness (log ratio) has been reported for the following variant? A26G U59A C62A G63A
-5.96

What value of polymerase ribozyme fitness (log ratio) has been reported for the following variant? U9G C56U G61U
-4.53

What value of polymerase ribozyme fitness (log ratio) has been reported for the following variant? G51C C79A
-4.29

What value of polymerase ribozyme fitness (log ratio) has been reported for the following variant? G17A G60U C97U
-4.13

What value of polymerase ribozyme fitness (log ratio) has been reported for the following variant? C56A G120C
0.484

What value of polymerase ribozyme fitness (log ratio) has been reported for the following variant? G63C G117U G120A
-2.53

What value of polymerase ribozyme fitness (log ratio) has been reported for the following variant? G63C C115U
-1.32

What value of polymerase ribozyme fitness (log ratio) has been reported for the following variant? C8G G35C A50U A118U
-5.01

What value of polymerase ribozyme fitness (log ratio) has been reported for the following variant? U32A G48A C62U C97U A100U
-7.37

What value of polymerase ribozyme fitness (log ratio) has been reported for the following variant? G120A G122U
0.476

What value of polymerase ribozyme fitness (log ratio) has been reported for the following variant? G51A G60A C124G
-1.16

What value of polymerase ribozyme fitness (log ratio) has been reported for the following variant? C13G A41U C56U A121G
0.91

What value of polymerase ribozyme fitness (log ratio) has been reported for the following variant? C64U C73A U131A
-0.288

What value of polymerase ribozyme fitness (log ratio) has been reported for the following variant? U96C A100U
-1.08

What value of polymerase ribozyme fitness (log ratio) has been reported for the following variant? G36C C40U G48U U125A
-3.35

What value of polymerase ribozyme fitness (log ratio) has been reported for the following variant? U54A A68G G71U C80G C102G G113U U125A
-6.12

What value of polymerase ribozyme fitness (log ratio) has been reported for the following variant? A29U U38G G45U G120A U129A
-4.85

What value of polymerase ribozyme fitness (log ratio) has been reported for the following variant? G36A C88G
-2.65

What value of polymerase ribozyme fitness (log ratio) has been reported for the following variant? C8G C13A A16U
0.292

What value of polymerase ribozyme fitness (log ratio) has been reported for the following variant? C3U C13U U59A
-0.207

What value of polymerase ribozyme fitness (log ratio) has been reported for the following variant? G19C G45A U78C C82G U112C
-1.42

What value of polymerase ribozyme fitness (log ratio) has been reported for the following variant? C4A C99U
-4.5

What value of polymerase ribozyme fitness (log ratio) has been reported for the following variant? C72U G77C C114U
-2.28

What value of polymerase ribozyme fitness (log ratio) has been reported for the following variant? C85A A121C
0.793

What value of polymerase ribozyme fitness (log ratio) has been reported for the following variant? C8U G44A C56A
-0.314

What value of polymerase ribozyme fitness (log ratio) has been reported for the following variant? G42C C101U
-1.45

What value of polymerase ribozyme fitness (log ratio) has been reported for the following variant? C53G C64U G127U
-1.02

What value of polymerase ribozyme fitness (log ratio) has been reported for the following variant? C8A C72U U87A C99U
-2.56

What value of polymerase ribozyme fitness (log ratio) has been reported for the following variant? U59A G77A A83C U92A C102U U109C C114U
-6.72

What value of polymerase ribozyme fitness (log ratio) has been reported for the following variant? U21C G61C C85A A95U
-4.53

What value of polymerase ribozyme fitness (log ratio) has been reported for the following variant? C72A G110A C115A
-2.51

What value of polymerase ribozyme fitness (log ratio) has been reported for the following variant? C12G C13U
-0.223

What value of polymerase ribozyme fitness (log ratio) has been reported for the following variant? C80U C88U A111G C114A
-4.84

What value of polymerase ribozyme fitness (log ratio) has been reported for the following variant? A18C G93C
-3.24

What value of polymerase ribozyme fitness (log ratio) has been reported for the following variant? A29C C53G A111U
-1.63

What value of polymerase ribozyme fitness (log ratio) has been reported for the following variant? A6G A121C
2.2

What value of polymerase ribozyme fitness (log ratio) has been reported for the following variant? G39U A105C
-3.64

What value of polymerase ribozyme fitness (log ratio) has been reported for the following variant? C12A A18U C56U C79U C115U A118C U131C
-3.23

What value of polymerase ribozyme fitness (log ratio) has been reported for the following variant? C11A G45U A95C G113U
-7.14

What value of polymerase ribozyme fitness (log ratio) has been reported for the following variant? A6U A18U C28U C70A C123G
-6.38

What value of polymerase ribozyme fitness (log ratio) has been reported for the following variant? C49U C72G U78C
-1.33

What value of polymerase ribozyme fitness (log ratio) has been reported for the following variant? U9C C12U U81A C89A
-1.67

What value of polymerase ribozyme fitness (log ratio) has been reported for the following variant? "U14G"
-1.56

What value of polymerase ribozyme fitness (log ratio) has been reported for the following variant? U59C U78G C104U G117A
-2.35

What value of polymerase ribozyme fitness (log ratio) has been reported for the following variant? A6G A24G G36U C49A
-3.79

What value of polymerase ribozyme fitness (log ratio) has been reported for the following variant? G44U U78C A108G
-4.95

What value of polymerase ribozyme fitness (log ratio) has been reported for the following variant? C64G C89U C123U
-5.79

What value of polymerase ribozyme fitness (log ratio) has been reported for the following variant? G45U U54G G77C C123G
0.415

What value of polymerase ribozyme fitness (log ratio) has been reported for the following variant? C4G U21A A24G A46U U125A
-4.02

What value of polymerase ribozyme fitness (log ratio) has been reported for the following variant? C11U C12A A41C C56G G69U
-2.94

What value of polymerase ribozyme fitness (log ratio) has been reported for the following variant? G44A G52C G58A G120A
-1.3

What value of polymerase ribozyme fitness (log ratio) has been reported for the following variant? C34A C72U C85A G113A
-5.11

What value of polymerase ribozyme fitness (log ratio) has been reported for the following variant? C70A U78C C102U
-4.3

What value of polymerase ribozyme fitness (log ratio) has been reported for the following variant? C20A C73G
-3.25

What value of polymerase ribozyme fitness (log ratio) has been reported for the following variant? C8G C11U C70A C94U
-1.28

What value of polymerase ribozyme fitness (log ratio) has been reported for the following variant? U21C A37C U81A
-3.15

What value of polymerase ribozyme fitness (log ratio) has been reported for the following variant? C20A G63A C94A U112A
-2.57

What value of polymerase ribozyme fitness (log ratio) has been reported for the following variant? G77A G120U
-0.0426

What value of polymerase ribozyme fitness (log ratio) has been reported for the following variant? C8A C53A U78C C80U
-0.244

What value of polymerase ribozyme fitness (log ratio) has been reported for the following variant? C11A G77A C82G
-1.88

What value of polymerase ribozyme fitness (log ratio) has been reported for the following variant? C49U C62U A118U
-0.00141

What value of polymerase ribozyme fitness (log ratio) has been reported for the following variant? G45U G61U G117U C123A
-2.94

What value of polymerase ribozyme fitness (log ratio) has been reported for the following variant? C34U G120A U130A
-4.02

What value of polymerase ribozyme fitness (log ratio) has been reported for the following variant? C13A G57A G127C
-3.7

What value of polymerase ribozyme fitness (log ratio) has been reported for the following variant? C3A C64U G71A G110U U129G
-6.8

What value of polymerase ribozyme fitness (log ratio) has been reported for the following variant? C31U U112A G113A
-4.76

What value of polymerase ribozyme fitness (log ratio) has been reported for the following variant? C20A C53U C72G U126G
-3.99

What value of polymerase ribozyme fitness (log ratio) has been reported for the following variant? A50U C101G U106A A118G C124A
0.335

What value of polymerase ribozyme fitness (log ratio) has been reported for the following variant? G93A A100G U112C U131A
-2.69

What value of polymerase ribozyme fitness (log ratio) has been reported for the following variant? U7A C12A A90G
-0.303

What value of polymerase ribozyme fitness (log ratio) has been reported for the following variant? A108U G120U
-5.29

What value of polymerase ribozyme fitness (log ratio) has been reported for the following variant? U32A C88G U125A
-5.98

What value of polymerase ribozyme fitness (log ratio) has been reported for the following variant? G61C C85U U116A C123U U129A
-6.64

What value of polymerase ribozyme fitness (log ratio) has been reported for the following variant? G51U C82A A95C C124U
-4.21
